# SYSTEM: HLA-B*15:17
# MEASUREMENT DESCRIPTION: IEDB peptide-MHC binding, purified MHC/competitive/fluorescence; filed as Kd, often an IC50 or EC50 that approximates it; bounds were set here for any values at or beyond the usual limits of such assays
# CONDITIONS: source organism: New York virus
pKd: −log10 of the molar value.
ASSAY ENDPOINT: pKd

>  <ITEM SEQUENCE>
FVKDWMDRI

>  <ASSAY ENDPOINT>
pKd

>  <MEAS VALUE>
≤ 4.70

$$$$

====

# SYSTEM: HLA-B*58:01
# MEASUREMENT DESCRIPTION: IEDB peptide-MHC binding, purified MHC/direct/fluorescence; filed as Kd, often an IC50 or EC50 that approximates it; bounds were set here for any values at or beyond the usual limits of such assays
# CONDITIONS: source organism: Influenza A virus (A/goose/Hong Kong/8/1976(H1N1))
ASSAY ENDPOINT: Kd

>  <ITEM SEQUENCE>
KTTYWWDGL

>  <ASSAY ENDPOINT>
Kd

>  <MEAS VALUE>
≥ 5 µM

$$$$

====

# SYSTEM: HLA-A*02:01
# MEASUREMENT DESCRIPTION: IEDB peptide-MHC binding, purified MHC/competitive/fluorescence; filed as Kd, often an IC50 or EC50 that approximates it; bounds were set here for any values at or beyond the usual limits of such assays
# CONDITIONS: source organism: Vaccinia virus

>  <ITEM SEQUENCE>
MLAESCDSV

>  <Kd (nM)>
1.1

$$$$

====

# SYSTEM: HLA-B*35:01
# MEASUREMENT DESCRIPTION: IEDB peptide-MHC binding, purified MHC/competitive/radioactivity; filed as Kd, often an IC50 or EC50 that approximates it; bounds were set here for any values at or beyond the usual limits of such assays
# CONDITIONS: source organism: Triticum aestivum
pKd: −log10 of the molar value.
List of pKd values.

>  <ITEM SEQUENCE>
YPLGQGSF

>  <QUALIFIER SIGN>
=

>  <pKd>
5.82

$$$$
>  <ITEM SEQUENCE>
QPQQLPQF

>  <QUALIFIER SIGN>
≤

>  <pKd>
4.06

$$$$
>  <ITEM SEQUENCE>
NPQAQGSV

>  <QUALIFIER SIGN>
≤

>  <pKd>
4.06

$$$$
>  <ITEM SEQUENCE>
QPFLQPQLPY

>  <QUALIFIER SIGN>
=

>  <pKd>
7.54

$$$$

====

# SYSTEM: HLA-A*02:01
# MEASUREMENT DESCRIPTION: IEDB peptide-MHC binding, purified MHC/direct/fluorescence; filed as Kd, often an IC50 or EC50 that approximates it; bounds were set here for any values at or beyond the usual limits of such assays
# CONDITIONS: source organism: Yersinia pestis Nepal516
pKd: −log10 of the molar value.
ASSAY ENDPOINT: pKd

>  <ITEM SEQUENCE>
AFASLQDML

>  <MEAS VALUE>
≤ 4.70

$$$$

====

# SYSTEM: HLA-B*18:01
# MEASUREMENT DESCRIPTION: IEDB peptide-MHC binding, purified MHC/competitive/fluorescence; filed as Kd, often an IC50 or EC50 that approximates it; bounds were set here for any values at or beyond the usual limits of such assays
# CONDITIONS: source organism: Human immunodeficiency virus 1
ASSAY ENDPOINT: Kd (nM)

>  <ITEM SEQUENCE>
KSLYNTVAVLY

>  <SYSTEM>
HLA-B*18:01

>  <MEAS VALUE>
275

$$$$

Cited source for all entries: the Immune Epitope Database (IEDB)
